- tested.on: T1, integrin αVβ5 (UniProt P06756 31-992; P18084 24-719)
- T1 construct: Coated on the ELISA plate
- test.description: ELISA, coated integrin, anti-MICA-HRP
measured.endpoint: αvβ5 signal/ng (signal/ng MICA)
Kindly provide the numeric value in signal/ng MICA only, without the unit symbol.

Query: αvβ5 signal/ng; subject: soluble MICA generated from pKK47 (loop 1 insert extended 5.3sp) (designed binder, From pKK34 (His6, Glu125); secreted by 293T cells; also called 1-5.3sp) HHHHHHEPHSLRYNLTVLSWDGSVQSGFLTEVHLDGQPFLRCDRQKCRAKPQGQWAEDVLGNKTWDRETRDLTGNGKDLRMTLAHIKDQKEGLHSLQEIRVCEIHEDNSTRSSQHFYYDGELFLSQNLETEEWTMPQSSRAQTLAMNVRNFLKEDAMKTKTHYHAMHADCLQELRRYLKSGVVLRRTVPPMVNVTSGGSGGGSHLARGDDLTYSGGSGGGVTCRASGFYPWNITLSWRQDGVSLSHDTQQWGDVLPDGNGTYQTWVATRICQGEEQRFTCYMEHSGNHSTHPVPSGK
9.38
